Target or system: T1, Mcl-1, Q07820
T1 chain: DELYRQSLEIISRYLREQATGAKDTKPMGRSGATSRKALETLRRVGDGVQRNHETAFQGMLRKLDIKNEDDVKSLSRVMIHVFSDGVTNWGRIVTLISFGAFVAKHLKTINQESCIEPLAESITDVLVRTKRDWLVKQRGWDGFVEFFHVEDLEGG
Protocol text: peptide SPOT array, c-Myc-tagged receptor at 1 uM or 100 nM, anti-c-Myc-Cy3
Measured metric: SPOT signal as a fraction of Bim BH3's signal on the same receptor and array
Just the number.

Some solved entries appear below for comparison.
> print(dat)
                                 binder  value
1     SEIMHSFAKCIEVMGDGCLNNEHFEE [IPO5]   0.04
2    GMTSEQVAQVLRNCGNSVRMLVARDP [INADL]   0.07
3  LNLLMISVAFDRVIGDQLEKLCDSLL [SLC38A8]   0.04

Task: What value of measured SPOT signal as a fraction of Bim BH3's signal on the same receptor and array is listed for EKVLIFGGDILKFALDALLALWRVER [ADCY10] ?
Result: 0.03

Task: Now consider SQEPLEKAQLDALVGDQLIQSHHYAA [MCF2L2] .
Result: 0.03

Task: Now consider TCLNRGFSRLLDNMAEFFRPTEQDLQ [PEX3] .
Result: 0.04

Task: Now consider GSKSDPLCVLLQDVGGGSWAELGRTE [CPNE1] .
Result: 0.02
